# Test system: HOP-62 NSCLC
# test.method.notes: NCI-60 one-dose screen, 48 h
# experimental.parameters: 10 µM unless noted
About 83,000 compounds went through this panel and 20% of them were active in at least one assay; those are over-represented in the sample as a whole. Activity calls are given as the source filed them. The calls were made as follows: active = growth percent below 10; inactive = the rest.
Answer with one of the outcomes active, inactive

Worked examples, 5 compounds total:
Each compound tested received a call. Report the one for `COc1cnc2c(c1)C(=O)c1c-2n(CCCNCC2CC2)c(=O)c2cc(F)ccc12` .
active

Each compound tested received a call. Report the one for `N#Cc1c(-c2ccccc2)cc(-c2c[nH]c3ccccc23)nc1-c1c[nH]c2ccccc12` .
inactive

Each compound tested received a call. Report the one for C/C(=N\NC(=O)CSc1nc2sc3c(c2c(=O)n1-c1ccccc1)CCC(C)C3)c1ccc(Cl)cc1 (stereo unspecified) .
inactive

Each compound tested received a call. Report the one for `CC[C@@](C)(NC(=O)C(C)(C)NC(=O)[C@@H](NC(=O)[C@@H]1CCCN1C(=O)C(C)(C)NC(=O)[C@H](CC(C)C)NC(=O)CNC(=O)C(C)(C)NC(=O)[C@@H](NC(=O)C(C)(C)NC(=O)[C@H](CCC(N)=O)NC(=O)[C@H](C)NC(=O)C(C)(C)NC(=O)[C@H](C)NC(=O)C(C)(C)NC(=O)[C@@H]1CCCN1C(=O)C(C)(C)NC(C)=O)C(C)C)C(C)C)C(=O)N[C@@H](CCC(N)=O)C(=O)N[C@@H](CCC(N)=O)C(=O)N[C@H](CO)Cc1ccccc1` .
inactive

Each compound tested received a call. Report the one for `C=C1C(=O)O[C@@H]2C[C@@H](C)[C@H](OC)CC(=O)[C@](C)(OC(C)=O)C[C@H](OC(=O)/C(C)=C\C)[C@@H]12` .
inactive

Next:
Each compound tested received a call. Report the one for NC(=O)N1N=C(c2cc3ccccc3oc2=O)CC1c1cn(-c2ccccc2)nc1-c1ccc(Cl)cc1 (stereo unspecified) .
inactive

----------
# Test system: HCC-2998 colon
# test.method.notes: NCI-60 one-dose screen, 48 h (100 = growth as untreated, 0 = no growth, -100 = all killed)
# experimental.parameters: 10 µM unless noted
About 83,000 compounds went through this panel and 20% of them were active in at least one assay; those are over-represented in the sample as a whole.
Would you mind telling me the reported growth of each entry?
Answers are plain numbers, in %.

Recorded results for 3 compounds are shown here.
Fill in: growth of `Cc1ccc(NC(=O)c2ccc(CN3CCN(C)CC3)c(I)c2)cc1Oc1ccc(-c2[nH]nc3ncnc(N)c23)cc1` is ___
108

Fill in: growth of `N#Cc1c(-c2ccccc2)cc(-c2c[nH]c3ccccc23)nc1-c1c[nH]c2ccccc12` is ___
93.6

Fill in: growth of `O=c1cc(-c2ccccc2)nc2sc(-c3c[nH]c4ccc(Br)cc34)nn12` is ___
109

Consider the following items and state reported growth for each.
1. CCN1C/C(=N\S(=O)(=O)c2ccccc2)N(CC)C1=S
2. COc1ccc(-c2nc(SCC(C)C)nc(N/N=C\c3cccc([N+](=O)[O-])c3)c2C#N)cc1
3. O=C(COc1ccc(C2SCC(=O)N2c2ccc(F)cc2)cc1)c1ccccc1 (stereo not given)
4. Cc1nn(-c2ccc(Br)cc2)c2nc(CCl)[nH]c(=O)c12
5. O=[N+]([O-])c1ccc(-c2nnc(SCc3ccc(O)c4ncccc34)n2-c2ccccc2)cc1
6. O=C1c2cc(Br)ccc2-n2c1nc1cc(Br)ccc1c2=O
7. Nc1nc(-c2cccc([N+](=O)[O-])c2)c(N=Nc2cccc(Cl)c2)s1

1: 98.4; 2: 80.3; 3: 106; 4: 105; 5: 41.9; 6: 108; 7: 27.2
